# Tested on: MKL-2
# test protocol: qHTS assay to identify novel small-molecules to repurpose for Merkel cell carcinoma treatment (AID 1296009); further: nearly all actives have a fitted effect of over 60% in size
# measurement conditions: MCC and control cell lines, CellTiter-Glo viability, 72 h; series mostly up to 46 µM
Inconclusive results are not listed. Active and inactive are the calls of the source. The call rests on the fitted dose curve; in most records, active means well fitted inhibition curve with a large enough effect; inconclusive means small, poorly fitted or top-dose-only effect; inactive means flat fitted curve, though single readings scatter.
Write down one outcome, taken from active, inactive

COc1cc(C[C@@H](CO)[C@H](CO)Cc2ccc(O)c(OC)c2)ccc1O    active
CC(=O)[C@]1(O)Cc2c(O)c3c(c(O)c2[C@@H](O[C@H]2C[C@H](N)[C@@H](O)[C@H](C)O2)C1)C(=O)c1ccccc1C3=O    active
O=c1c(O)c(-c2ccc(O)c(O)c2)oc2cc(O)ccc12    inactive
C[C@H](CCC(=O)O)[C@H]1CC[C@H]2[C@@H]3[C@H](O)C[C@@H]4C[C@H](O)CC[C@]4(C)[C@@H]3CC[C@]12C    inactive
CC(C)Oc1ccc(C(=O)N[C@H](CNC(=O)CN(C)C)Cc2ccc(-c3cn4cccc([C@H](C)O)c4n3)cc2)cc1Cl    inactive

stdin: Check the results log: what was the call for CC(=O)ON=C1C(c2c(O)[nH]c3cc(Br)ccc23)=Nc2ccccc21 ?
stdout: inactive

stdin: Hi, sorry to bother you, what did the test record for COC(=O)C1C2CC3c4[nH]c5cc(OC)ccc5c4CCN3CC2CC(OC(=O)c2cc(OC)c(OC)c(OC)c2)C1OC (stereo not drawn) ?
stdout: inactive

stdin: // param item: Cn1cc(-c2cnn3c(N)c(Br)c([C@H]4CCCNC4)nc23)cn1 ; yields the recorded call
stdout: active
